System: clinically isolated Staphylococcus aureus
Assay: In vitro antibacterial activity against clinical isolates, Experiment 2
Type: cell-based
Details: 25 clinical strains S. aureus incl. 16 methicillin resistant, 50% of strains, read-out: MIC50
Structures can show the parent of a compound that is named as a salt.
measurement.type: MIC50 (µg/mL)
One number for each entry, in µg/mL.

- CN1Cc2csc3c(C(=O)O)c(=O)c4cc(F)c(N5CCO[C@H](CO)C5)c1c4n23: 0.013

Report MIC50 for each item below.
1. CN1Cc2csc3c(C(=O)O)c(=O)c4cc(F)c(N5CCN(C)C(CO)C5)c1c4n23 (stereo not shown) [Compound (I), hydrochloride]
2. CN1Cc2csc3c(C(=O)O)c(=O)c4cc(F)c(N5CCC(N(C)C)CC5)c1c4n23
3. COCC1CN(c2c(F)cc3c(=O)c(C(=O)O)c4scc5n4c3c2N(C)C5)CCO1 (stereo not shown) [Compound (E)]

Outgoing:
0.2
0.1
0.013

Report MIC50 for each item below.
1. COC[C@@H]1CN(c2c(F)cc3c(=O)c(C(=O)O)c4scc5n4c3c2N(C)C5)CCO1
2. COC[C@H]1CN(c2c(F)cc3c(=O)c(C(=O)O)c4scc5n4c3c2N(C)C5)CCO1
3. CN1Cc2csc3c(C(=O)O)c(=O)c4cc(F)c(N5CCN(C)C(CF)C5)c1c4n23 (stereo not shown) [Compound (K), hydrochloride]

Outgoing:
0.013
0.013
0.05

----------
Entries with reported log10 of MIC on Staphylococcus aureus Terajima (IID 670)
Structures can show the parent of a compound that is named as a salt.
All values: log10 MIC [µg/mL].

// worked examples, log10 of MIC included
- CN1Cc2csc3c(C(=O)O)c(=O)c4cc(F)c(N5CCOC(CO)C5)c1c4n23 (stereo not shown): -1.60
- COC[C@H]1CN(c2c(F)cc3c(=O)c(C(=O)O)c4scc5n4c3c2N(C)C5)CCO1: -1.30
- CN1Cc2csc3c(C(=O)O)c(=O)c4cc(F)c(N5CCC(O)CC5)c1c4n23: -1.89
- CN1Cc2csc3c(C(=O)O)c(=O)c4cc(F)c(N5CCN(C)C(CO)C5)c1c4n23 (stereo not shown) [Compound (I), hydrochloride]: -0.70
- CC1COc2c(N3CCN(C)CC3)c(F)cc3c(=O)c(C(=O)O)cn1c23 (stereo not shown) [Compound (X), reference compound]: -0.41

Report log10 of MIC for each item below.
1. CN1Cc2csc3c(C(=O)O)c(=O)c4cc(F)c(N5CCOC(CCl)C5)c1c4n23 (stereo not shown)
2. COCC1CN(c2c(F)cc3c(=O)c(C(=O)O)c4scc5n4c3c2N(C)C5)CCO1 (stereo not shown) [Compound (E)]

Outgoing:
1: -1.60; 2: -1.60

Report log10 of MIC for each item below.
1. CN1Cc2csc3c(C(=O)O)c(=O)c4cc(F)c(N5CCO[C@@H](CO)C5)c1c4n23
2. CN1Cc2csc3c(C(=O)O)c(=O)c4cc(F)c(N5CCC(=O)CC5)c1c4n23

Outgoing:
-1.60
-1.89

Report log10 of MIC for each item below.
1. CN1CCN(c2c(F)cc3c(=O)c(C(=O)O)c4scc5n4c3c2OC5)CC1 [Compound (Y), hydrochloride, reference compound]
2. COC[C@@H]1CN(c2c(F)cc3c(=O)c(C(=O)O)c4scc5n4c3c2N(C)C5)CCO1

Outgoing:
1. -1.00
2. -1.60

Report log10 of MIC for each item below.
1. COCC1CN(c2c(F)cc3c(=O)c(C(=O)O)c4scc5n4c3c2N(C)C5)CCN1C (stereo not shown) [Compound (J), hydrochloride]
2. CC1CN(c2c(F)cc3c(=O)c(C(=O)O)c4scc5n4c3c2N(C)C5)CCO1 (stereo not shown)

Outgoing:
1: -1.00; 2: -1.89

----------
System: Enterobacter cloacae 963
Structures can show the parent of a compound that is named as a salt.
So I've got a bunch of compounds here, and I need their MIC values.

// worked examples, MIC included
- CN1Cc2csc3c(C(=O)O)c(=O)c4cc(F)c(N5CCC(O)CC5)c1c4n23 [Compound (L)]: 0.2 µg/mL
- CN1Cc2csc3c(C(=O)O)c(=O)c4cc(F)c(N5CCOC(CF)C5)c1c4n23 (centres unmarked) [Compound (C)]: 0.2 µg/mL
- CC1COc2c(N3CCN(C)CC3)c(F)cc3c(=O)c(C(=O)O)cn1c23 (centres unmarked) [Compound (X), reference compound]: 0.2 µg/mL
- CCOCC1CN(c2c(F)cc3c(=O)c(C(=O)O)c4scc5n4c3c2N(C)C5)CCO1 (centres unmarked) [Compound (Q)]: 1.56 µg/mL
- COCC1CN(c2c(F)cc3c(=O)c(C(=O)O)c4scc5n4c3c2N(C)C5)CCO1 (centres unmarked) [Compound (E)]: 0.78 µg/mL

Report MIC for each item below.
1. CN1Cc2csc3c(C(=O)O)c(=O)c4cc(F)c(N5CCC(=O)CC5)c1c4n23 [Compound (G)]
2. CC1CN(c2c(F)cc3c(=O)c(C(=O)O)c4scc5n4c3c2N(C)C5)CCO1 (centres unmarked) [Compound (A)]
3. CN1Cc2csc3c(C(=O)O)c(=O)c4cc(F)c(N5CCN(C)C(CF)C5)c1c4n23 (centres unmarked) [Compound (K), hydrochloride]

Outgoing:
0.2 µg/mL
0.2 µg/mL
0.2 µg/mL

----------
Test system: clinically isolated Staphylococcus aureus
Test: In vitro antibacterial activity against clinical isolates, Experiment 2
Type: cell-based
Settings: 25 clinical strains S. aureus incl. 16 methicillin resistant, 50% of strains, read-out: MIC50
measurement.type: MIC50

• CC1CN(c2c(F)cc3c(=O)c(C(=O)O)c4scc5n4c3c2N(C)C5)CCO1 (stereo not drawn) = ≤ 6 ng/mL

Report MIC50 for each item below.
1. CN1Cc2csc3c(C(=O)O)c(=O)c4cc(F)c(N5CCC(=O)CC5)c1c4n23
2. CN1Cc2csc3c(C(=O)O)c(=O)c4cc(F)c(N5CCC(O)CC5)c1c4n23

Outgoing:
1. ≤ 6 ng/mL
2. ≤ 6 ng/mL
